Sourced from ChEMBL document CHEMBL1122124

I'd appreciate it if you could supply Geometric mean values for the items below.
# Organism: Mus musculus
# ASSAY COMMENT: Tested for antibody response of mice injected with Bovine serum Albumin(BSA) at 50 ug/dose in experiment 1
# Assay type: functional
Numbers only.

{"COMPOUND": "CCCCCCCCCCCCCCCCCC(=O)OCC(OC(C)=O)C1OC(O)C(NC(C)=O)C1OC(C)C(=O)N[C@@H](C)C(=O)NC(CCC(=O)O)C(N)=O (stereo not given in full)", "DATA VALUE": 1408.52}

Please state Geometric mean for every compound in the list that follows.
1. CC(=O)NCC1OC(O)C(NC(C)=O)C(O[C@H](C)C(=O)N[C@@H](C)C(=O)NC(CCC(=O)O)C(N)=O)C1O (stereo not given in full)
2. CCCCCCCCCCCCCCCCCCCCCC(=O)OC(C)(C)C(=O)OCC(OC(C)=O)C1OC(O)C(NC(C)=O)C1OC(C)C(=O)N[C@@H](C)C(=O)NC(CCC(=O)O)C(N)=O (stereo not given in full)
3. CC(=O)N[C@H]1C(O)O[C@H](CO)[C@@H](O)[C@@H]1O[C@H](C)C(=O)N[C@@H](C)C(=O)N[C@H](CCC(=O)O)C(N)=O (stereo not given in full) [MURAMYL DIPEPTIDE]
4. COC1OC(C(O)CO)C(OC(C)C(=O)N[C@@H](C)C(=O)NC(CCC(=O)O)C(N)=O)C1NC(C)=O (stereo not given in full)
5. CCCCCCCCCCCCCCCCCCCCCC(=O)OC(C)(C)C(=O)OCC1OC(O)C(NC(C)=O)C(O[C@H](C)C(=O)N[C@@H](C)C(=O)NC(CCC(=O)O)C(N)=O)C1O (stereo not given in full)
6. CC(=O)NC1C(O)OC(COC(C)=O)C(OC(C)=O)C1O[C@H](C)C(=O)N[C@@H](C)C(=O)NC(CCC(=O)O)C(N)=O (stereo not given in full)
7. CC(=O)NC1C(O)OC(C(COC(C)=O)OC(C)=O)C1OC(C)C(=O)N[C@@H](C)C(=O)NC(CCC(=O)O)C(N)=O (stereo not given in full)

Solution:
[7.78, 215.51, 592.21, 10.7, 768, 384, 271.53]

Exercise: So what does the record say about Geometric mean for CCCCCCCCCCCCCCCCCC(=O)OCC1OC(O)C(NC(C)=O)C(O[C@H](C)C(=O)N[C@@H](C)C(=O)NC(CCC(=O)O)C(N)=O)C1O (stereo not given in full) ?
Solution: 995.97
